assay: Toxicity in brine shrimp assessed as mortality at […] after 24 hrs by microscopic analysis; assay type: organism-based; details: artemia salina, in vivo; read-out: Activity
reported.property: mortality at 24 h (%)

# molecule, reported.property, readout.number
records = [
    ("COC(=O)[C@@H]1C[C@@]23C4=C(CC[C@@H]5CN6C[C@@H](C)[C@@H](C[C@@H](OC(C)=O)[C@@]52COC(C)=O)[C@]63O)CC[C@@H]41", "mortality at 24 h", 70.8),
    ("COC(=O)[C@@H]1C[C@@]23C4=C(CC[C@@H]5CN6C[C@@H](C)[C@@H](C[C@@H](O)[C@@]52CO)[C@]63O)CC[C@@H]41", "mortality at 24 h", 0),
    ("CCO[C@@]1(CC)CCC2(CO1)[C@@H]1CCC3=C4[C@@H](CC3=O)[C@H](C(=O)OC)C[C@@]42CN(C)C1 (some centres undefined)", "mortality at 24 h", 53.8),
    ("CC[C@@]1(OC)CCC2(CO1)[C@@H]1CCC3=C4[C@H](CC3=O)[C@H](C(=O)OC)C[C@@]42CN(C)C1 (some centres undefined)", "mortality at 24 h", 45),
]

---

Quick reference for pIC50 among some compounds
tested on: SMMC-7721; test: Cytotoxicity against human SMMC7721 cells after 48 hrs by MTT assay; type: functional, cell-based; details: SMMC-7721, 48 h
pIC50: −log10 of the molar value.
reported.property: pIC50

# compound, reported.property, result
measured = [
    ("CCO[C@@]1(CC)CCC2(CO1)[C@@H]1CCC3=C4[C@@H](CC3=O)[C@H](C(=O)OC)C[C@@]42CN(C)C1 (stereo partly specified)", "pIC50", "< 4.40"),
    ("CC[C@]1(OC)CCC2(CO1)[C@@H]1CCC3=C4[C@@H](CC3=O)[C@H](C(=O)OC)C[C@@]42CN(C)C1 (stereo partly specified)", "pIC50", "< 4.40"),
    ("CCOC(=O)[C@@H]1C[C@@]23CN(C)C[C@@H](CCC4=C2[C@@H]1CC4=O)C31CC[C@](CC)(OC)OC1 (stereo partly specified)", "pIC50", "< 4.40"),
    ("COC(=O)[C@@H]1C[C@@]23C4=C(CC[C@@H]5CN6C[C@@H](C)[C@@H](C[C@@H](O)[C@@]52CO)[C@]63O)CC[C@@H]41", "pIC50", "< 4.40"),
    ("COC(=O)[C@@H]1C[C@@]23C4=C(CC[C@@H]5CN6C[C@H](C)[C@@](O)(C=C[C@@]52C=O)[C@]63O)CC[C@@H]41", "pIC50", "< 4.40"),
    ("COC(=O)[C@@H]1C[C@@]23CN(C)C[C@@H](CCC4=C2[C@@H]1CC4=O)C31CC=C(C(C)C)OC1 (stereo partly specified)", "pIC50", "< 4.40"),
]

---

Quick reference for mortality at 24 h among some compounds
experiment: Toxicity in brine shrimp assessed as mortality at […] after 24 hrs by microscopic analysis; format: organism-based; settings: artemia salina, in vivo; read-out: Activity

# compound, mortality at 24 h, %
rows = [
    ("CCOC(=O)[C@@H]1C[C@@]23CN(C)C[C@@H](CCC4=C2[C@H]1CC4=O)C31CC[C@](CC)(OC)OC1 (some centres not stated)", 49.9),
    ("CCOC(=O)[C@@H]1C[C@@]23CN(C)C[C@@H](CCC4=C2[C@@H]1CC4=O)C31CC[C@](CC)(OC)OC1 (some centres not stated)", 41),
    ("COC(=O)[C@@H]1C[C@@]23CN(C)C[C@@H](CCC4=C2[C@@H]1CC4=O)C31CC=C(C(C)C)OC1 (some centres not stated)", 55.2),
    ("COC(=O)[C@@H]1C[C@@]23C4=C(CC[C@@H]5CN6C[C@@H](C)[C@@H](C=C[C@@]52C=O)[C@]63O)CC[C@@H]41", 64.9),
    ("COC(=O)[C@@H]1C[C@@]23C4=C(CC[C@@H]5CN6C[C@H](C)[C@@](O)(C=C[C@@]52C=O)[C@]63O)CC[C@@H]41", 80.6),
    ("CCC1=CCC2(CO1)[C@@H]1CCC3=C4[C@H](CC3=O)[C@H](C(=O)OC)C[C@@]42CN(C)C1 (some centres not stated)", 64.6),
    ("CC[C@]1(OC)CCC2(CO1)[C@@H]1CCC3=C4[C@@H](CC3=O)[C@H](C(=O)OC)C[C@@]42CN(C)C1 (some centres not stated)", 67.7),
    ("COC(=O)[C@@H]1C[C@]23C4=NC[C@@H](C)[C@]45C[C@@H](OC(C)=O)[C@@]2(COC(C)=O)[C@H](CCC2=C3[C@@H]1CC2)[C@H]5O", 31.8),
    ("CC[C@]1(OC)CCC2(CO1)[C@@H]1CCC3=C4[C@H](CC3=O)[C@H](C(=O)OC)C[C@@]42CN(C)C1 (some centres not stated)", 70.9),
    ("CCO[C@@]1(CC)CCC2(CO1)[C@@H]1CCC3=C4[C@H](CC3=O)[C@H](C(=O)OC)C[C@@]42CN(C)C1 (some centres not stated)", 50.9),
    ("COC(=O)[C@@H]1C[C@@]23C4=C(CC[C@@H]5CN6C[C@@H](C)[C@@H](C[C@@H](OC(C)=O)[C@@]52COC(C)=O)C63)CC[C@@H]41", 81.8),
    ("COC(=O)[C@@H]1C[C@@]23C(=O)N4C[C@@H](CCC5=C2[C@@H]1CC5)[C@]3(CO)/C=C\\C(=O)[C@H](C)C4", 38.3),
]

// provenance: ChEMBL document CHEMBL2062455
